Taken from the supplement of paper PMC8728848.

- SYSTEM NAME: Gal3S(b1-3)GlcNAc
- ASSAY PROCEDURE: glycan array binding signal (z-score within array); higher = stronger binding
- CONDITION NOTES: glycan notation: IUPAC condensed, linker removed
The sample as a whole holds a higher share of the strongest signals than the screen did.
glycan array binding signal (z-score) vs -0.1: at or above is Criterion met, below is Criterion not met.

### Prompt Hi, just wondering whether SBD-G4S3-SBD (protein) MASIPSSASVQLDSYNYDGSTFSGKIYVKNIAYSKKVTVVYADGSDNWNNNGNIIAASFSGPISGSNYEYWTFSASVKGIKEFYIKYEVSGKTYYDNNNSANYQVSTGGGGSGGGGSGGGGSEFASIPSSASVQLDSYNYDGSTFSGKIYVKNIAYSKKVTVVYADGSDNWNNNGNIIAASFSGPISGSNYEYWTFSASVKGIKEFYIKYEVSGKTYYDNNNSANYQVST shows glycan array binding signal (z-score) of -0.1 or higher.
### Response Criterion not met

### Prompt Would you say PA-IL (Pseudomonas aeruginosa), Q05097 (protein) MAWKGEVLANNEAGQVTSIIYNPGDVITIVAAGWASYGPTQKWGPQGDREHPDQGLICHDAFCGALVMKIGNSGTIPVNTGLFRWVAPNNVQGAITLIYNDVPGTYGNNSGSFSVNIGKDQS shows glycan array binding signal (z-score) at minimum -0.1?
### Response Criterion not met

### Prompt Can Fm1D (Escherichia coli) (protein) FSCNVDGGSSIGAGTTSVYVNLDPVIQPGQNLVVDLSQHISCWNDYGGWYDTDHINLVQGSAFAGSLQSYKGSLYWNNVTYPFPLTTNTNVLDIGDKTPMPLPLKLYITPVGAAGGVVIKAGEVIARIHMYKIATLGSGNPRNFTWNIISNNSVVMPTHHHHHH be said to have glycan array binding signal (z-score) at or above -0.1?
### Response Criterion not met

### Prompt State whether the measured glycan array binding signal (z-score) reaches -0.1, counting equality as reaching it, for SrpA (Streptococcus sanguis) (protein) SSKSESTVNSQSASSETNRSSTNNGSTSSSSETARVRKRRATDTTPPTITVPSDIIAYRGEEFEFYFEITDDSGQVKNIELSTFGKPLGLNWLEYSEDNFNVPGNATSDNPLRVRVHGTVPLNEPIPADKNRAQFTRTIRAWDAAGNVSSNITFVIKYRAQTDKYNPADPTITYVDRLSSLSPSEKNAVEAAVRAANPQIPAAARITVSANGTVTITYPDSSTDTITANRVVKDLASSRSALT
### Response Criterion met

### Prompt Exam item: decide whether the reported glycan array binding signal (z-score) for FaeGab (Escherichia coli) (protein) WMTGDFNGSVDIGGSITADDYRQKWEWKVGTGLNGFGNVLNDLTNGGTKLTITVTGNKPILLGRTKEAFATPVSGGVDGIPQIAFTDYEGASVKLRNTDGETNKGLAYFVLPMKNAEGTKVGSVKVNASYAGVFGKGGVTSADGELFSLFADGLRAIFYGGLTTTVSGAALTSGSAAAARTELFGSLSRNDILGQIQRVNANITSLVDVAGSYREDMEYTDGTVVSAAYALGIANGQTIEATFNQAVTTSTQWSAPLNVAITYY is at least -0.1.
### Response Criterion met
